MEASUREMENT PROTOCOL: Partition coefficient (logP)
Type: physicochemical
PROTOCOL CONDITIONS: octanol/water; read-out: logP
// reported logP for each item listed
MEASUREMENT LABEL: logP

COMPOUND: CC1C2c3ccccc3C(c3ccccc32)C1C(=O)Nc1ccccn1 (stereo unspecified)
OBS VALUE: 4.17

COMPOUND: CC1C2c3ccccc3C(c3ccccc32)C1CN(C)C (stereo unspecified)
OBS VALUE: 4.24

COMPOUND: c1ccc2c(c1)C1c3ccccc3C2C2CNCC12 (stereo unspecified)
OBS VALUE: 2.98

COMPOUND: CC1C2c3ccccc3C(c3ccccc32)C1C[N+](C)(C)C.[I-] (stereo unspecified)
OBS VALUE: 1.32

COMPOUND: CN(C)C=NC(=O)C1C2c3ccccc3C(c3ccccc32)C1C(=O)N=CN(C)C (stereo unspecified)
OBS VALUE: 1.6

COMPOUND: CC1C2c3ccccc3C(c3ccccc32)C1C(=O)Nc1cccnc1 (stereo unspecified)
OBS VALUE: 3.85

* * *

MEASUREMENT PROTOCOL: Partition coefficient (logD7.0)
Type: physicochemical
PROTOCOL CONDITIONS: octanol/water, pH 7; read-out: logD
MEASUREMENT LABEL: logD

MOLECULE: CN(C)CC1C2c3ccccc3C(c3ccccc32)C1COC(=O)N(C)C (stereo unspecified)
OBS VALUE: 1
--
MOLECULE: CNC1(C)C2CCC(C2)C1(C)C (stereo unspecified)
OBS VALUE: -0.4
--
MOLECULE: CC1C2c3ccccc3C(c3ccccc32)C1C(N)=O (stereo unspecified)
OBS VALUE: 2.89
--
MOLECULE: CN(C)CCNC1CC2c3ccccc3C1c1ccccc12 (stereo unspecified)
OBS VALUE: -1.5
--
MOLECULE: CCOC(=O)C1C2c3ccccc3C(c3ccccc32)C1N(C)C (stereo unspecified)
OBS VALUE: 3
--
MOLECULE: CC1C2c3ccccc3C(c3ccccc32)C1CN(C)C (stereo unspecified)
OBS VALUE: 2.25

* * *

Test system: Plasmodium falciparum
MEASUREMENT PROTOCOL: In vitro inhibitory activity against multidrug-resistant Plasmodium falciparum W2 Indochina
Assay type: functional, organism-based
PROTOCOL CONDITIONS: Plasmodium falciparum
pIC50: −log10 of the molar value.
// reported pIC50 for each item listed

COMPOUND: CCOC(=O)C1C2c3ccccc3C(c3ccccc32)C1N(C)C (stereo unspecified)
MEASUREMENT QUALIFIER: =
pIC50: 4.47
//
COMPOUND: CNCC1CC2c3ccccc3C1c1ccccc12 (stereo unspecified)
MEASUREMENT QUALIFIER: =
pIC50: 5.10
//
COMPOUND: O=C(NCc1ccccc1)C1=CC2c3ccccc3C1c1ccccc12
MEASUREMENT QUALIFIER: =
pIC50: 4.30
//
COMPOUND: COC(=O)C1C2c3ccccc3C(c3ccccc32)C1C(=O)N(C)C (stereo unspecified)
MEASUREMENT QUALIFIER: =
pIC50: 4.49
//
COMPOUND: COc1ccc(CCN(C)CCCC(C#N)(c2ccc(OC)c(OC)c2)C(C)C)cc1OC (stereo unspecified)
MEASUREMENT QUALIFIER: =
pIC50: 4.87
//
COMPOUND: NC(=O)C1C2c3ccccc3C(c3ccccc32)C1C(N)=O (stereo unspecified)
MEASUREMENT QUALIFIER: =
pIC50: 4.36
//
COMPOUND: CN(C)CCNC1CC2c3ccccc3C1c1ccccc12 (stereo unspecified)
MEASUREMENT QUALIFIER: =
pIC50: 5.10
//
COMPOUND: CN(C)C1C2c3ccccc3C(c3ccccc32)C1C(=O)O (stereo unspecified)
MEASUREMENT QUALIFIER: <
pIC50: 4.30
//
COMPOUND: NCC1C2c3ccccc3C(c3ccccc32)C1CN (stereo unspecified)
MEASUREMENT QUALIFIER: =
pIC50: 5.10
//
COMPOUND: CCN(CC)CCCC(C)Nc1ccnc2cc(Cl)ccc12 (stereo unspecified)
MEASUREMENT QUALIFIER: =
pIC50: 6.05
//
COMPOUND: O=C(NCCCCCCCCCCNC(=O)C1=CC2c3ccccc3C1c1ccccc12)C1=CC2c3ccccc3C1c1ccccc12
MEASUREMENT QUALIFIER: =
pIC50: 5.10
